# System: HT29 colon
# assay.comment: NCI-60 one-dose screen, 48 h (100 = growth as untreated, 0 = no growth, -100 = all killed)
# test.settings: 10 µM unless noted
The panel holds about 83,000 compounds, 20% with a hit somewhere; the sample as a whole holds those more often.
Please mark Fulfilled if the recorded growth is equal to or greater than 80%, and Not fulfilled if it falls below.

Solved cases below.
State whether the measured growth reaches 80%, counting equality as reaching it, for Cc1c(Cl)cccc1NC(=O)c1sc2nc3c(cc2c1N)CCCCCC3
Not fulfilled

State whether the measured growth reaches 80%, counting equality as reaching it, for O=C1Nc2ccc(Cl)cc2/C1=N/c1nc(-c2ccc(Cl)cc2)cs1
Not fulfilled

State whether the measured growth reaches 80%, counting equality as reaching it, for CNc1cccc2c1C(=O)c1cccc(N)c1C2=O
Not fulfilled

State whether the measured growth reaches 80%, counting equality as reaching it, for O=C(O)c1cn(C2CC2)c2cc(N3CCN(Cc4nnc(Nc5ccccc5)o4)CC3)c(F)cc2c1=O
Fulfilled

State whether the measured growth reaches 80%, counting equality as reaching it, for S=c1ssnc1-c1cc2ccccc2o1
Not fulfilled

State whether the measured growth reaches 80%, counting equality as reaching it, for COc1ccc(/C=C(/C(=O)N2CCN(Cc3ccccc3)CC2)c2cc(OC)c(OC)c(OC)c2)cc1O
Fulfilled

New cases:
State whether the measured growth reaches 80%, counting equality as reaching it, for CC1(C)[C@@H](O)CC[C@]2(C)[C@H]3CC[C@@H]4[C@H]5[C@H](c6cn(-c7ccccc7)nn6)CC[C@]5(CO)CC[C@@]4(C)[C@]3(C)CC[C@@H]12
Fulfilled

State whether the measured growth reaches 80%, counting equality as reaching it, for O=C1C(=O)c2c(nc3ccc(C(F)(F)F)cn23)-c2ccccc21
Not fulfilled

State whether the measured growth reaches 80%, counting equality as reaching it, for c1ccc(Sc2ncccn2)nc1
Fulfilled

State whether the measured growth reaches 80%, counting equality as reaching it, for COc1ccc2nc(-c3ccc(Cl)cc3)cc(-c3nnc(SCC(=O)Nc4ccc(/C(C)=N\O)cc4)o3)c2c1
Not fulfilled
